assay: soluble on expression in E. coli; label from the status in PepcDB or PDB records
result-type: soluble on expression in E. coli

Some sequences with known soluble on expression in E. coli results, for comparison:
>  <polymer-sequence>
MKALERTVTVKGLAEKEVKANIAIWPINFTEVDNNLPKLYETVQLKTDKVVAFLKERGFSDSEITISLPSIEDRQAQGYVDPNVKYRYSAKVNLSVYTSQIDLMLSSRKQMINLVKEGIAIASQDYENRTEFLFTQLNDVKPTMVQEATQNAREVAEKFAKDSESRLGKIKSASQGQFTISDRDSSTPYIKQIRIVSTLTYYLNDLEHHHHHH

>  <readout-value>
not soluble

$$$$
>  <polymer-sequence>
MHHHHHHMNPERSERIEIPVLPLRDVVVYPHMVIPLFVGREKSIRCLEAAMDHDKKIMLVAQKEASTDEPGVNDLFTVGTVASILQMLKLPDGTVKVLVEGLQRARISALSDNGEHFSAKAEYLE

>  <readout-value>
soluble

$$$$
>  <polymer-sequence>
MGSDKIHHHHHHMADNTPKFSQGSTSDTVGYEDFLVDLKTRISNAQLRAVVAVNKELVLLYWQIGRDILHRQQQQGWGAKVIDRLASDLRKAFPDIKGFSSRNLKYMRAFAEAYNDEEFVQQAVAQIPWGHNVRLLDAVKDPAERLWYAQQTIQNGWSRNVLVHQIESKLYQRQGKATTNFNNTLPQPQSELAQQLLKDPYTFDFLNLGEDFLERDLERALIKHIRDFLLELGVGFAFVGSQYHLEVGGEDFYIDLLFYHLRLRCFVVIDLKIEDFKPEFSGKMNFYVSAVDDLLRHPNDQSTIGIILCRSKNKVIAEYSLRDMYKPIGVSTYQLKDNLPEFVQDNLPTIEQLESELETVVLKLEKLDDL

>  <readout-value>
not soluble

$$$$
>  <polymer-sequence>
MAVTWAVSDGRAGNARQAEALARALHPDTVHALHLQARAPWRWAAPRRLPGANSAFGPAFAAQLQQPPGLVIGCGRQAALATRLLRARGSVAVQILDPRLDRRQWDLVVVPEHDALRGENVLTLLGSLHPVDDAWLAAGRAAFPAVGALPGPRVALLIGGPTTQVPWTLQALAAQCNAVQAQVRAAGGSLLITASRRTPPEVVALLRTLQQGNPGLLWCDARDGANPYAGLLGWADAIVASADSVNLLSEACATPVPVVAACAEFARGRVGAYVQALQQRQRLCAADEVLATTAAMTPVRETERIAAQVRMRLGLLEHHHHHH

>  <readout-value>
soluble

$$$$
>  <polymer-sequence>
SLQSNILAFTPPAPSASMNVNRTAVVSVTTKDSRAIQEIASYTKHGELIKLNASPSVTQLFQQVMQQNLISKGFRVGQLNGSNAWVTVDVREFGTQVEQGNLRYKLNTKIQATVYVQGAKGSYNKSFNVTHSQEGVFNAGNDEIHKVLSQTFNDIVNNIYQDQEVAAAINQYSN

>  <readout-value>
soluble

$$$$

API: the following record is the query input.
# input Which soluble on expression in E. coli is listed for MGSDKIHHHHHHLIKNILIMAANGQISRLIENQILNDDQFANVHLTLFLRHQSRLAQLAKNPRVTLIEGSLDRLDDVKKAMVDQDLVFIGVVDHSKGSQQTQNVIAGMKAGHVQRVIYTNVLGIYDEVPGTFGKWNKATIGNGLPSALKSDQLLEQSGLDYTTLRLPWLNDRDVKYQLTHKDETYVGVSGSRKSVADVVLKIIADPDYLKNDSVGIADPDTAGSDRLVY ?
# output not soluble

====

assay: soluble on expression in E. coli; label from the status in PepcDB or PDB records
result-type: soluble on expression in E. coli

Some sequences with known soluble on expression in E. coli results, for comparison:
>  <polymer-sequence>
SDERDVLWVGVCAMPKKVESEPMQRILAALTSSRVAHFEPMIFDAKTLFERPIHKWPVCDALIAFHSEGFPLERAIAYAELRRPYCLNGLREQRMLLDRSKVYEVLARERVPVPRHIVVRHDGADVGRTDTRFVEHDDYIEYCGERLFKPFVEKPIDAEDHRVCIYYARPLYGRRRLFRKTANQSSVFEPGWRRVRREGAFIYEEFIPSEHQSDIKVYAVGPEYAYAERRKSPVVDGIVERNAHGKELRFPVELSTAERCVAATITAAFRQFVCGFDLIRHADGNAFYVNDVNGFSFVKGSQSYYESCGRILAEHLARECARSAAVDGE

>  <soluble on expression in E. coli>
soluble

$$$$
>  <polymer-sequence>
MGSDKIHHHHHHMDKKTYKLLRTLTHLSKDLYNLTLYTVKQHYELNGTFLPFVKAYHMVKDSEPYKLLPSQVAQQTMKIVERNFRSFFHVLKERKKGNYNRPVRPPKYLPKNGHFILIFPYQSFRVKEDRIILTLGKNFAEKYGVKHLEIPLPKNVKGHRIKEIRILPRYNALWFEVEYVYEVLPEERDLDRSKYLAIDLGLDNFATCVSTTGTAFIIEGRGLKSFNRWWNKEKAKLQSQYDKQGVKFGKRMVWLLKKRKNVVNDFMNKAVSYIVNYCLENGIGNVVIGELKGVKQNTDLGRRNNQNFHYIPYGLFKQKLKAKCERYGINYIEVDEAYTSKVDALTLEPIEKREKYLGKRGETWTVPVFRWCFNKC

>  <soluble on expression in E. coli>
not soluble

$$$$
>  <polymer-sequence>
MGSDKIHHHHHHNTEQQLDSEVSEPTKTMRSQQHSDGAAAITHLTPLDLPLDSQGLTDEDSQQINSLLNQLHESAMSADWDTYFDLYHPDAAFIGTDATERWNMVHFRRYASPTQGWRYDLQARHLLQIEDVVVFDEQLYSPEYGISRGTGALVNTTKGWKIAQYHLSFPIPNAKAKRITTLIKQ

>  <soluble on expression in E. coli>
not soluble

$$$$
>  <polymer-sequence>
MQTASVPAGIAERRTRAWAPYIDAKLGFRNHWYPVRLSAEVAEASPVPVQLLGEKVLLNRVDGVVHAIADRCLHRGVTLSDKVECYSKATISCWYHGWTYRWDNGKLVDILTNPTSVQIGRHALKTYPVREEKGLVFLFVGDQEPHDLAEDVPPGFLDADLAVHGQHRVVDANWRMGVENGFDAGHVFIHKSSILLDGNDIALPLGFAPGDPEQLTRSVTGEGAPKGVFDLLGEHSVPIFEATIEGQPAIQGHMGSKMVAISISVWLPGVLKVDPFPDPTLTQFEWYVPIDEGHHLYLQMLGRRVGSEEEARSFEAEFREKWVELALNGFNDDDILARRSMEPFYADDRGWREEVLFESDRAIIEWRRLASQYNRGIQTRDVRHHHHHH

>  <soluble on expression in E. coli>
soluble

$$$$
>  <polymer-sequence>
MSLAILPPDSLETALSQAQQATQAALQAGKNRLQIEILLPDLNPMGLAAGYLPLFAELGSDLKVFFADAGSAALARREWGETAYSVRGVNERLTPIEASDRAIVIVAPTPVEVTAIEQMCLTAGDRPFIMLNPRLQDVAVVGIGYAGRQLRERFLNTLEPCYYLRPLAETVILWRCYPQAWQIWQYRETAPTCLAEFEQRPTSEDIERALSALGKPRAQSFLSRLSALLRALQSEGHHHHHH

>  <soluble on expression in E. coli>
soluble

$$$$

API: the following record is the query input.
# input Which soluble on expression in E. coli is listed for MGSDKIHHHHHHMKAANLAPCLMAMLLCTACEQLPIARKAPPPPPPATTAAKPAEQPRPTPIAAHDISLAGTCRRTEDDGFREDAVMRVVSNDVKSLKWKLWVSKRGTCQFDLADFKQVQKTPHIVLEATDGTQCKLLIWQDPRRVTLAHANCQQRCTPGIYEQAWPVLFNPRNGDCAEIR ?
# output not soluble

====

assay: soluble on expression in E. coli; label from the status in PepcDB or PDB records
result-type: soluble on expression in E. coli

>  <polymer-sequence>
MGSDKIHHHHHHMNFFEIVNAHLSELSPNEQKLFDYVVTNMGQIKNQSIREVASATFVSTATFLRFVKKIGFSGFSEFTTVIKFTLINRQEAERTTPFVVQQKDYREEYLKNIGESIRVIQPDHLRQVVDRLAQHPDVFFFAKGVSKHAVAYIDYLYTMAGFKTHFPRDHDYRKQALTQVDNDALVFILTYKGSDGEMLDMMSQLVGRPVRPLLVSITEPDNNTIQNLSDINFYIFTDGVTVNGTDISSRISTISVMELILYQYVEDYGGRDFHFQRQLES

>  <readout-value>
not soluble

$$$$
>  <polymer-sequence>
MDWKITIFTYNLAMKASDSEAVHNMLNGMIDDHTHLVAIGLQEVAHSETIGGAVLTWATTIASWMNTNGRMVLLAKTFQATNQVLIFGRKQLIGQIKRIDYRFQRNTMGGLTGHKGSIGVRLQLASPYSIVFVDSHFIHGPENYGKRVEQYHTNRNCSFPEDKSVRAAFWFGDFNFRVEEDVNTVIRKIKNGTHLELLDTREQLKRALVERDAFIGFHEQPVTFEPTYRVTVGTTEQDGKRVPSWTDRILYKGDGITGLSYTNNKKAVASDHLPVVAMFRVTAPAAPKPQWEVIFEHLPTWYTSIPLVGRFQVNELYYKENGSYRDWIGVFPSSINDCTTATNWIYAATCFEQVIEGSKFLACEFNNIPAGNYRLGYFSCHLHCLVGLSKVFQIVEQP

>  <readout-value>
not soluble

$$$$

The origin of these recorded values is the DeepSol protein solubility set.
